Overview of recorded % recovery in Flow for various binders
Target: REFACTO® (recombinant factor VIII-like polypeptide consisting of amino acids 1-743 and 1638 through 2332 of human factor VIII) (human) (UniProt P00451)
Sequence (P00451 20-762, chain 1 of 2): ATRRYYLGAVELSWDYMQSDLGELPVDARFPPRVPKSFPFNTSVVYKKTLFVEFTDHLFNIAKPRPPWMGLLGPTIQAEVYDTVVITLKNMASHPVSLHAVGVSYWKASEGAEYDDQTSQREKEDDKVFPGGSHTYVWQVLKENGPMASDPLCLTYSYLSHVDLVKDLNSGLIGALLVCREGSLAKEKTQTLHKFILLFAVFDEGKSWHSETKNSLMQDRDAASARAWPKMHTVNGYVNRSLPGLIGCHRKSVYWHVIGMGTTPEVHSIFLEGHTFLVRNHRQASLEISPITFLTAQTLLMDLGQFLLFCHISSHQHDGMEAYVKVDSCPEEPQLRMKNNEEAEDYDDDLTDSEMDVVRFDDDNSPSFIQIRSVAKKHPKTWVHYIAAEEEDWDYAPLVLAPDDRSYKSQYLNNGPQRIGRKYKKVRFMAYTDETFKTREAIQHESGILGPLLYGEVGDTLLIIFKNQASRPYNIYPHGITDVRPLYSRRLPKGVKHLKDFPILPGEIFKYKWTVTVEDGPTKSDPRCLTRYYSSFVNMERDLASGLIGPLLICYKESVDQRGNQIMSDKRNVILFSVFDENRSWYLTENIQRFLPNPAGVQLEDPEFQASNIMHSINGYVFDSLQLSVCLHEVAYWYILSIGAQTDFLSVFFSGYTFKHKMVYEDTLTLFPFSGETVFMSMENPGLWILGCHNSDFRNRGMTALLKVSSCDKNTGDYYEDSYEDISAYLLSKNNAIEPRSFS
Sequence (P00451 1657-2351, chain 2 of 2): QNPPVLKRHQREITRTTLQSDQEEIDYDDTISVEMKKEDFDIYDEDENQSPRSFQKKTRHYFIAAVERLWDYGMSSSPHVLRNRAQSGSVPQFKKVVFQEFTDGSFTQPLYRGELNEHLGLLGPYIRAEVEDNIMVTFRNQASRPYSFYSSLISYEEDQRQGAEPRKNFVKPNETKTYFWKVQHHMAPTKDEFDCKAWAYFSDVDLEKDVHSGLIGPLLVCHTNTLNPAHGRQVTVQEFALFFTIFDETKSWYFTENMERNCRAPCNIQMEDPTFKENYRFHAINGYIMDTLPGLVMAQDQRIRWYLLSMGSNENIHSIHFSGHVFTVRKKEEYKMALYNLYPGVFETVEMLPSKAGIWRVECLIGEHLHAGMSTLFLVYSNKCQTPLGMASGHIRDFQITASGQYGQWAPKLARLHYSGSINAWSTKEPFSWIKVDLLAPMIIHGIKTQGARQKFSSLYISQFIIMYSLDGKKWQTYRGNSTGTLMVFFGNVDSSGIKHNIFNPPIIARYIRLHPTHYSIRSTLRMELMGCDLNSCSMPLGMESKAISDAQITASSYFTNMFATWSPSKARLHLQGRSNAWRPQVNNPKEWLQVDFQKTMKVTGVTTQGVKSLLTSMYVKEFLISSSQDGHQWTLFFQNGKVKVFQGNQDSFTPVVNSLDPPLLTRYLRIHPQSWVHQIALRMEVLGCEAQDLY
Assay: affinity column, peptide on Toyopearl Formyl 650-M; fraction quantified by factor VIII activity assay
Positions of bridges follow the written chain, without caps; N, C: chain ends. No end group written: not given here. *: point of attachment. NHNH2 = NN*
READOUT: % recovery in Flow (%)

{"columns": ["BINDER", "ENDPOINT_RESULT"],
 "data": [
  ["AEGTGDFCWVFAFDHCHDPGPEGGGS-NHNH2 (disulfide 8-16) [CS-458 (…-NHNH2)]", 1.4],
  ["AEGTGDFGCSWLFPCPFDPGPEGGGS-NHNH2 (disulfide 9-15) [CS-456 (…-NHNH2)]", 4.8],
  ["AEGTGDFCWVFPFQHCADPGPEGGGS-NHNH2 (disulfide 8-16 (inferred)) [CS-459 (…-NHNH2)]", 6.4],
  ["AEGTGDHPCGSWLRPCLHDPGPEGGGS-NHNH2 (disulfide 9-16 (inferred)) [CS-453 (…-NHNH2)]", 0],
  ["AEGTGDHLCGAWFRPCDADPGPEGGGS-NHNH2 (disulfide 9-16) [CS-454 (…-NHNH2)]", 2.2],
  ["AEGTGDFHCIGVWFCLHDPGPEGGGS-NHNH2 (disulfide 9-15 (inferred)) [CS-455 (…-NHNH2)]", 61.6],
  ["AEGTGDFCWVFPFHHCFDPGPEGGGS-NHNH2 (disulfide 8-16 (inferred)) [CS-460 (…-NHNH2)]", 28.4]
]}
